Sourced from ChEMBL document CHEMBL1134582

Entries and their inhibition values follow.
Subject of test: Adenosine receptor A1 (Homo sapiens) (UniProt P30542)
Sequence (P30542 whole entry): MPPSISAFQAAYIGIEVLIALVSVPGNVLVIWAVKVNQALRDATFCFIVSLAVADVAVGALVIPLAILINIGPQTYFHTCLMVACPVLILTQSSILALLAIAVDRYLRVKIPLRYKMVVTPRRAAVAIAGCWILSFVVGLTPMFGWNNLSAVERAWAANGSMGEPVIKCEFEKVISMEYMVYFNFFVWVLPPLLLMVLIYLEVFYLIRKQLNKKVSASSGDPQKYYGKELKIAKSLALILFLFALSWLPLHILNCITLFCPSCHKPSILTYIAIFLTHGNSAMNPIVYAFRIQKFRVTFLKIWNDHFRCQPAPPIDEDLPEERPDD
Protocol text: Inhibition of Forskolin (10 nM) induced cAMP production at human Adenosine A1 receptor (compared to CPA in CHO cells)
Assay type: cell-based
Conditions: in the assay text read “10 µM” for “10 nM”
Could you give me the number in %? Just the number is fine.

Example entries and their recorded answers appear below.
Smiles repr: COC[C@H]1O[C@@H](n2cnc3c(N)nc(Cl)nc32)[C@H](O)[C@@H]1O
Measure unit: %
Quantitative result: 78
--
Smiles repr: COC[C@H]1O[C@@H](n2cnc3c(NC4CCCC4)ncnc32)[C@H](O)[C@@H]1O
Measure unit: %
Quantitative result: 74
--
Smiles repr: Nc1ncnc2c1ncn2[C@@H]1O[C@H](COC2CC2)[C@@H](O)[C@H]1O
Measure unit: %
Quantitative result: 61
--
Smiles repr: O[C@@H]1[C@H](O)[C@@H](COC2CC2)O[C@H]1n1cnc2c(NC3CCCC3)nc(Cl)nc21
Measure unit: %
Quantitative result: 43
--
Smiles repr: COC[C@H]1O[C@@H](n2cnc3c(NCc4cccc(I)c4)nc(Cl)nc32)[C@H](O)[C@@H]1O
Measure unit: %
Quantitative result: 37
--
Smiles repr: COC[C@H]1O[C@@H](n2cnc3c(NC4CCCC4)nc(Cl)nc32)[C@H](O)[C@@H]1O
Measure unit: %
Quantitative result: 73
--
Smiles repr: CCOC[C@H]1O[C@@H](n2cnc3c(NC4CCCC4)ncnc32)[C@H](O)[C@@H]1O
Measure unit: %
Quantitative result: 69
--
Smiles repr: COC[C@H]1O[C@@H](n2cnc3c(NCc4cccc(I)c4)ncnc32)[C@H](O)[C@@H]1O
Measure unit: %
Quantitative result: 53
--
Smiles repr: CCOC[C@H]1O[C@@H](n2cnc3c(NC4CCCC4)nc(Cl)nc32)[C@H](O)[C@@H]1O
Measure unit: %
Quantitative result: 62
--
Smiles repr: CCOC[C@H]1O[C@@H](n2cnc3c(NCc4cccc(I)c4)ncnc32)[C@H](O)[C@@H]1O
Measure unit: %
Quantitative result: 6

Noted for O[C@@H]1[C@H](O)[C@@H](COC2CC2)O[C@H]1n1cnc2c(NC3CCCC3)ncnc21 : its inhibition reads 62

Noted for CCOC[C@H]1O[C@@H](n2cnc3c(N)ncnc32)[C@H](O)[C@@H]1O : its inhibition reads 57

Noted for Nc1nc(Cl)nc2c1ncn2[C@@H]1O[C@H](COC2CC2)[C@@H](O)[C@H]1O : its inhibition reads 49

Noted for CCOC[C@H]1O[C@@H](n2cnc3c(N)nc(Cl)nc32)[C@H](O)[C@@H]1O : its inhibition reads 67
